Where do these numbers come from? They come from patent US20220411471A1.

target: Human MDM2 (HDM2) 1-116 (Homo sapiens, UniProt Q00987); construct: Human MDM2 (HDM2) 1-116; assay: Fluorescence polarization assay, MDM2/p53 (Table 3); type: binding
Sequence (Q00987 1-116): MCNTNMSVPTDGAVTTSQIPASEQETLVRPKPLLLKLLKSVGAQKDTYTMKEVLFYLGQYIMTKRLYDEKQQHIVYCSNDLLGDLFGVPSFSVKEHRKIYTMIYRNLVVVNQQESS
pIC50: −log10 of the molar value. Non-standard residues stand in square brackets, D forms with d. Residues, ends and D or L forms follow the SMILES beside them. Trp(6-Cl) = N[C@@H](Cc1c[nH]c2cc(Cl)ccc12)C(=O)O; Phe(4-Cl) = N[C@@H](Cc1ccc(Cl)cc1)C(=O)O; Phe(3-F) = N[C@@H](Cc1cccc(F)c1)C(=O)O; Phe(4-F) = N[C@@H](Cc1ccc(F)cc1)C(=O)O; 3Pal = N[C@@H](Cc1cccnc1)C(=O)O; 2Thi = N[C@@H](Cc1cccs1)C(=O)O; NMeL = CN[C@@H](CC(C)C)C(=O)O; dNMeV = CN[C@@H](C(=O)O)C(C)C; Tle = CC(C)(C)[C@H](N)C(=O)O; NMeV = CN[C@H](C(=O)O)C(C)C; dPip = O=C(O)[C@H]1CCCCN1; NMeA = CN[C@@H](C)C(=O)O; Nme = COCCNCC(=O)O
outcome measure: pIC50

compound: CC(C)C[C@H]1C(=O)N[C@@H](CC(=O)O)C(=O)N[C@@H](Cc2c[nH]c3ccccc23)C(=O)N[C@@H](CCC(=O)O)C(=O)N[C@@H](Cc2ccccc2)C(=O)N2CCC[C@@H]2C(=O)N2CCC[C@H]2C(=O)N[C@@H](Cc2ccc(F)cc2)C(=O)N[C@@H](CCC(=O)O)C(=O)N[C@@H](Cc2ccc(Cl)cc2)C(=O)N1C [Compound 6] (cyclo([Phe(4-F)]E[Phe(4-Cl)][NMeL]DWEF[dP]P))
result: > 6.00

compound: CC(C)[C@H]1C(=O)N[C@@H](Cc2cccnc2)C(=O)N2CCC[C@@H]2C(=O)N(C)[C@@H](C)C(=O)N[C@@H](Cc2ccc(F)cc2)C(=O)N[C@@H](C(C)(C)C)C(=O)N[C@@H](Cc2ccc(Cl)cc2)C(=O)N2CCCC[C@@H]2C(=O)N2CCC[C@H]2C(=O)N[C@@H](Cc2ccccc2)C(=O)N1C [Compound 27] (cyclo([3Pal][dP][NMeA][Phe(4-F)][Tle][Phe(4-Cl)][dPip]PF[NMeV]))
result: 5.60 to 6.00

compound: COCCN1CC(=O)N(C)[C@@H](C)C(=O)N[C@@H](Cc2ccc(F)cc2)C(=O)N(C)[C@@H](C)C(=O)N[C@@H](Cc2ccc(Cl)cc2)C(=O)N(C)[C@H](C(C)C)C(=O)N2CCC[C@H]2C(=O)N[C@@H](Cc2ccccc2)C(=O)N[C@@H](C(C)(C)C)C(=O)N[C@@H](Cc2cccc(F)c2)C1=O [Compound 24] (cyclo(F[Tle][Phe(3-F)][Nme][NMeA][Phe(4-F)][NMeA][Phe(4-Cl)][dNMeV]P))
result: 5.60 to 6.00

compound: CC(C)C[C@@H]1NC(=O)[C@H](Cc2c[nH]c3cc(Cl)ccc23)NC(=O)[C@H](CCC(=O)O)NC(=O)[C@H](Cc2ccccc2)NC(=O)[C@@H]2CCCN2C(=O)[C@H]2CCCN2C(=O)[C@H](Cc2ccccc2)NC(=O)[C@H](CCC(=O)O)NC(=O)[C@H](Cc2c[nH]c3ccccc23)NC(=O)[C@H](CC(=O)O)NC1=O [Compound 1] (cyclo(FE[Trp(6-Cl)]LDWEF[dP]P))
result: > 6.00

IN: Please tell me the measured pIC50 for C[C@H]1C(=O)N[C@@H](Cc2cccnc2)C(=O)N2CCC[C@@H]2C(=O)N(C)[C@@H](C)C(=O)N[C@@H](Cc2ccc(F)cc2)C(=O)N[C@@H](C(C)(C)C)C(=O)N[C@@H](Cc2ccc(Cl)cc2)C(=O)N2CCCC[C@@H]2C(=O)N2CCC[C@H]2C(=O)N[C@@H](Cc2ccccc2)C(=O)N1C [Compound 26] (cyclo([3Pal][dP][NMeA][Phe(4-F)][Tle][Phe(4-Cl)][dPip]PF[NMeA])) ; system: Human MDM2 (HDM2) 1-116 (Homo sapiens, UniProt Q00987).
OUT: > 6.00

IN: Write down the reported pIC50 (system: Human MDM2 (HDM2) 1-116 (Homo sapiens, UniProt Q00987)) of COCCN1CC(=O)N(C)[C@@H](C)C(=O)N[C@@H](Cc2ccc(F)cc2)C(=O)N(C)[C@@H](C)C(=O)N[C@@H](Cc2ccc(Cl)cc2)C(=O)N2CCCC[C@@H]2C(=O)N2CCC[C@H]2C(=O)N[C@@H](Cc2ccccc2)C(=O)N[C@@H](C(C)(C)C)C(=O)N[C@@H](Cc2cccnc2)C1=O [Compound 21] (cyclo([3Pal][Nme][NMeA][Phe(4-F)][NMeA][Phe(4-Cl)][dPip]PF[Tle]))
OUT: 5.60 to 6.00

IN: Tell me its pIC50 on Human MDM2 (HDM2) 1-116 (Homo sapiens, UniProt Q00987): COCCN1CC(=O)N[C@@H](Cc2ccc(Cl)cc2)C(=O)N2CCCC[C@@H]2C(=O)N2CCC[C@H]2C(=O)N[C@@H](Cc2ccccc2)C(=O)N[C@@H](C(C)(C)C)C(=O)N[C@@H](Cc2cccnc2)C(=O)N2CCC[C@@H]2C(=O)N(C)[C@@H](C)C(=O)N[C@@H](Cc2ccc(F)cc2)C1=O [Compound 18] (cyclo([3Pal][dP][NMeA][Phe(4-F)][Nme][Phe(4-Cl)][dPip]PF[Tle]))
OUT: > 6.00

IN: Quote Human MDM2 (HDM2) 1-116 (Homo sapiens, UniProt Q00987) pIC50 for entry COCCN1CC(=O)N(C)[C@@H](C)C(=O)N[C@@H](Cc2ccc(F)cc2)C(=O)N(C)[C@@H](C)C(=O)N[C@@H](Cc2ccc(Cl)cc2)C(=O)N2CCCC[C@@H]2C(=O)N2CCC[C@H]2C(=O)N[C@@H](Cc2ccccc2)C(=O)N[C@@H](C(C)(C)C)C(=O)N[C@@H](Cc2cccc(F)c2)C1=O [Compound 22] (cyclo(F[Tle][Phe(3-F)][Nme][NMeA][Phe(4-F)][NMeA][Phe(4-Cl)][dPip]P)) .
OUT: 5.60 to 6.00

IN: Give the observed pIC50 of CC(C)C[C@@H]1NC(=O)[C@H](Cc2c[nH]c3ccccc23)NC(=O)[C@H](CCC(=O)O)NC(=O)[C@H](Cc2ccccc2)NC(=O)[C@@H]2CCCN2C(=O)[C@H]2CCCN2C(=O)[C@H](Cc2ccccc2)NC(=O)[C@H](CCC(=O)O)NC(=O)[C@H](Cc2c[nH]c3ccccc23)NC(=O)[C@H](CC(=O)O)NC1=O [Compound 2] (cyclo(FEWLDWEF[dP]P)) for Human MDM2 (HDM2) 1-116 (Homo sapiens, UniProt Q00987).
OUT: 5.60 to 6.00

IN: Answer briefly: pIC50 recorded on Human MDM2 (HDM2) 1-116 (Homo sapiens, UniProt Q00987) for COCCN1CC(=O)N[C@@H](Cc2ccc(Cl)cc2)C(=O)N2CCCC[C@@H]2C(=O)N2CCC[C@H]2C(=O)N[C@@H](Cc2cccs2)C(=O)N[C@@H](C(C)(C)C)C(=O)N[C@@H](Cc2cccnc2)C(=O)N2CCC[C@@H]2C(=O)N(C)[C@@H](C)C(=O)N[C@@H](Cc2ccc(F)cc2)C1=O [Compound 25] (cyclo([2Thi][Tle][3Pal][dP][NMeA][Phe(4-F)][Nme][Phe(4-Cl)][dPip]P))
OUT: > 6.00

---

Known pIC50 of a selection of molecules
molecular target: Human MDM4 (HDM4) 1-114 (Homo sapiens); construct: Human MDM4 (HDM4) 1-114; test: Fluorescence polarization assay 2, MDM4 (Table 4); type: binding; settings: Table 4; fluorescence polarization; read-out: MDM4 IC50
Sequence (O15151 1-114): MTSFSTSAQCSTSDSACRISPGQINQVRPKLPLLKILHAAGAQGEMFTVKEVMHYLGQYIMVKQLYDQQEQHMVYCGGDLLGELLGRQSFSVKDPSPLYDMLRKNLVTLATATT
pIC50: −log10 of the molar value. Non-standard residues stand in square brackets, D forms with d. Residues, ends and D or L forms follow the SMILES beside them. Ala(4-thiazolyl) = N[C@@H](Cc1cscn1)C(=O)O; NMePhe(4-F) = CN[C@@H](Cc1ccc(F)cc1)C(=O)O; Phe(4-Cl) = N[C@@H](Cc1ccc(Cl)cc1)C(=O)O; Phe(4-F) = N[C@@H](Cc1ccc(F)cc1)C(=O)O; NMeF = CN[C@@H](Cc1ccccc1)C(=O)O; Tle = CC(C)(C)[C@H](N)C(=O)O; NMeV = CN[C@H](C(=O)O)C(C)C; hSer = N[C@@H](CCO)C(=O)O; NMeA = CN[C@@H](C)C(=O)O; dNMeA = CN[C@H](C)C(=O)O; Nme = COCCNCC(=O)O

Worked cases, pIC50 given:
molecule: COCC[C@@H]1NC(=O)[C@H]2CCCN2C(=O)[C@H](Cc2ccc(F)cc2)N(C)C(=O)[C@H](Cc2ccc(Cl)cc2)NC(=O)[C@H](C(C)(C)C)NC(=O)[C@H](Cc2ccc(F)cc2)NC(=O)CN(CCOC)C(=O)[C@@H](C)N(C)C(=O)[C@H](Cc2cscn2)NC(=O)[C@H](C)N(C)C1=O [Compound 37] (cyclo([Ala(4-thiazolyl)][dNMeA][Nme][Phe(4-F)][Tle][Phe(4-Cl)][NMePhe(4-F)][dP][hSer](Me)[NMeA]))
pIC50: 7.00 to 7.30
--
molecule: COCC[C@@H]1NC(=O)[C@H]2CCCN2C(=O)[C@H](Cc2ccccc2)N(C)C(=O)[C@H](Cc2ccc(Cl)cc2)NC(=O)[C@H](C(C)C)N(C)C(=O)[C@H](Cc2ccc(F)cc2)NC(=O)CN(CCOC)C(=O)[C@@H](C)N(C)C(=O)[C@H](Cc2cscn2)NC(=O)[C@H](C)N(C)C1=O [Compound 43] (cyclo([Ala(4-thiazolyl)][dNMeA][Nme][Phe(4-F)][NMeV][Phe(4-Cl)][NMeF][dP][hSer](Me)[NMeA]))
pIC50: 6.82 to 7.00

Now look at this one.
IN: For the molecule COCC[C@@H]1NC(=O)[C@H]2CCCN2C(=O)[C@H](Cc2ccccc2)N(C)C(=O)[C@H](Cc2ccc(Cl)cc2)NC(=O)[C@H](C)N(C)C(=O)[C@H](Cc2ccc(F)cc2)NC(=O)[C@H](C)N(C)C(=O)[C@@H](C)N(C)C(=O)[C@H](Cc2cscn2)NC(=O)[C@H](C)N(C)C1=O [Compound 34] (cyclo([Ala(4-thiazolyl)][dNMeA][NMeA][Phe(4-F)][NMeA][Phe(4-Cl)][NMeF][dP][hSer](Me)[NMeA])) , give its reported pIC50.
OUT: < 6.82
